Target Entity: AKT1 (Homo sapiens, UniProt P31749)
Sequence (P31749 whole entry): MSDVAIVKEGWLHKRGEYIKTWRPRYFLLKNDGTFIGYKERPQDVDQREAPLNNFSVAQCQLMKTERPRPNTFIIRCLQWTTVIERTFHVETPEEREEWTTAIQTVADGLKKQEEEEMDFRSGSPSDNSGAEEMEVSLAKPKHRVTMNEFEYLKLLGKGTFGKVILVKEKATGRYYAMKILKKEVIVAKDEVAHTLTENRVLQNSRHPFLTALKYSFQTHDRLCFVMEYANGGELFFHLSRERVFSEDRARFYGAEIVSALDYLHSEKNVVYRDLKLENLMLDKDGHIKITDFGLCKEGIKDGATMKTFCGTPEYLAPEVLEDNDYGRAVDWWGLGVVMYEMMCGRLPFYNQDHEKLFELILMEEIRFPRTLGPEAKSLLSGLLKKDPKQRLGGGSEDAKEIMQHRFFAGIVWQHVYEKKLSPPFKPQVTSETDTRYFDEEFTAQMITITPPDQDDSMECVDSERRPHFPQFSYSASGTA
Structures can show the parent of a compound that is named as a salt.
Note to self: IC50 under 40 nM means yes (1), ties and anything higher get no (0).

Example cases with answers are listed next.
molecule="CC(C)NC[C@@H](C(=O)N1C2CCC1CN(c1ncnc3c1[C@H](C(F)(F)F)CC(=O)N3)C2)c1ccc(Cl)cc1 (single isomer, unassigned) [Example 24 Isomer 2]" class_name="no (0)"
molecule="CC(C)NC[C@@H](C(=O)N1CCN(c2ncnc3c2[C@H](C)OC(=O)N3)[C@H]2C[C@H]21)c1ccc(Cl)cc1 (single isomer, unassigned) [Example 34 Isomer 4]" class_name="yes (1)"
molecule="CC(C)NC[C@@H](C(=O)N1CCN(c2ncnc3c2[C@@H](C)OC(=O)N3)CC1)c1ccc(Cl)cc1 (single isomer, unassigned) [Example 23 Isomer 2]" class_name="no (0)"
molecule="CC(C)NC[C@@H](C(=O)N1C2CCC1CN(c1ncnc3c1N(C)CC(=O)N3)C2)c1ccc(Cl)cc1 [Example 21, formate]" class_name="yes (1)"
molecule="CC(C)NC[C@@H](C(=O)N1CCN(c2ncnc3c2[C@H](C(F)(F)F)CC(=O)N3)CC1)c1ccc(Cl)cc1 (single isomer, unassigned) [Example 16 Isomer 2]" class_name="yes (1)"

Problem: Criterion: IC50 strictly below 40 nM. Is it met by `CC(C)NC[C@@H](C(=O)N1CCN(c2ncnc3c2CCC(=O)N3)CC1)c1ccc(Cl)cc1` ?
Result: no (0)

---

Recorded Tmax values for a group of compounds are listed next.
Assay: Pharmacokinetic evaluation in mice after intragastric administration
Assay type: in vivo, mouse
Experimental Conditions: po; male ICR mouse, 10 mg·kg−1 intragastrically, single dose, fasted, plasma; read-out: Tmax
Note: unit h is implicit; provide only the numeric part.

Recorded Tmax, per entry:
compound="CC(C)NC[C@@H](C(=O)N1CCN(c2ncnc3c2[C@H](C)C[C@H]3O)CC1)c1ccc(Cl)cc1 [GDC-0068, reference compound]" result=2
compound="CC(C)NC[C@@H](C(=O)N1CCN(c2ncnc3c2[C@H](C)OC(=O)N3)[C@H]2C[C@H]21)c1ccc(Cl)cc1 (single isomer, unassigned) [Example 34 Isomer 4]" result=4
compound="CC(C)NC[C@@H](C(=O)N1CCN(c2ncnc3c2[C@H](C)CC(=O)N3)[C@H]2C[C@H]21)c1ccc(Cl)cc1 (single isomer, unassigned) [Example 15 Isomer 2]" result=1

Problem: # return recorded Tmax for input `CC(C)NC[C@@H](C(=O)N1C2CCC1CN(c1ncnc3c1[C@H](C)CC(=O)N3)C2)c1ccc(Cl)cc1`
Result: 0.5

---

Target Entity: AKT2 (Homo sapiens, UniProt P31751)
Sequence (P31751 whole entry): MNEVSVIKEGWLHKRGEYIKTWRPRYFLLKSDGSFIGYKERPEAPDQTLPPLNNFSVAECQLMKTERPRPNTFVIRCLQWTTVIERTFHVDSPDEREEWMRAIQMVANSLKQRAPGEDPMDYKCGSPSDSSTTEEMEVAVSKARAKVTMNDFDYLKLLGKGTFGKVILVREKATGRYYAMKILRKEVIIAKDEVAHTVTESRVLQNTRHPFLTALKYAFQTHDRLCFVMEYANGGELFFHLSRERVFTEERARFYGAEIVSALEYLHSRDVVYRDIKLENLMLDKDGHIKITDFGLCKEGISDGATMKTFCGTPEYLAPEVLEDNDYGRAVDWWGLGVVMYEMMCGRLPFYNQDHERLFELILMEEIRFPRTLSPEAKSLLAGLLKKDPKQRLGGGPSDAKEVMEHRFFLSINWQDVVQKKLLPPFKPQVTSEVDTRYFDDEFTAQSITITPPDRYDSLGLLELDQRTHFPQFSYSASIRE
Where a name gives a salt, the structure may show the parent alone.
Recorded pIC50 values for a group of molecules are listed next.
A value of pIC50 is the negative decimal logarithm of a concentration given in moles per litre.

molecule="CC(C)NC[C@@H](C(=O)N1CC2CCC(C1)N2c1ncnc2c1[C@H](C(F)(F)F)CC(=O)N2)c1ccc(Cl)cc1 (single isomer, unassigned) [Example 25 Isomer 2]" target_entity="AKT2 (Homo sapiens, UniProt P31751)" result=7.70
molecule=CCN1CC(=O)Nc2ncnc(N3CC4CCC(C3)N4C(=O)[C@H](CNC(C)C)c3ccc(Cl)cc3)c21 target_entity="AKT2 (Homo sapiens, UniProt P31751)" result=7.05
molecule="CC(C)NC[C@@H](C(=O)N1C2CCC1CN(c1ncnc3c1[C@H]1C[C@H]1C(=O)N3)C2)c1ccc(Cl)cc1 (single isomer, unassigned) [Example 39 Isomer 2]" target_entity="AKT2 (Homo sapiens, UniProt P31751)" result=6.12
molecule="CC(C)NC[C@@H](C(=O)N1CCN(c2ncnc3c2[C@H](C)CC(=O)N3)CC1)c1ccc(Cl)cc1 [Example 2 (R) Configur- ation product]" target_entity="AKT2 (Homo sapiens, UniProt P31751)" result=8.37
molecule="CC(C)NCC(C(=O)N1CCN(c2ncnc3c2[C@H](C)CC(=O)N3)C[C@@H]1C)c1ccc(Cl)cc1 (stereo in doubt)" target_entity="AKT2 (Homo sapiens, UniProt P31751)" result=6.69

Problem: Determine reported pIC50 for `CC(C)NC[C@@H](C(=O)N1C2CCC1CN(c1ncnc3[nH]c(=O)c(=O)n(C)c13)C2)c1ccc(Cl)cc1` ; test system: AKT2 (Homo sapiens, UniProt P31751).
Result: 6.10

Problem: Determine reported pIC50 for C[C@@H]1CC(=O)Nc2ncnc(N3CCN(C(=O)C4(c5ccc(Cl)cc5)CCNCC4)CC3)c21 [Example 18, formate] ; test system: AKT2 (Homo sapiens, UniProt P31751).
Result: 6.59

Problem: Determine reported pIC50 for `CC(C)NC[C@@H](C(=O)N1CCN(c2ncnc3c2N(C)CC(=O)N3)C[C@@H]1C)c1ccc(Cl)cc1` ; test system: AKT2 (Homo sapiens, UniProt P31751).
Result: 6.48

Problem: Determine reported pIC50 for CC(C)NC[C@@H](C(=O)N1C2CCC1CN(c1ncnc3c1[C@@H]1C[C@@H]1C(=O)N3)C2)c1ccc(Cl)cc1 (single isomer, unassigned) [Example 39 Isomer 1] ; test system: AKT2 (Homo sapiens, UniProt P31751).
Result: 7.12
